Target: Peroxisome proliferator-activated receptor alpha (Homo sapiens)
Sequence (Q07869 whole entry): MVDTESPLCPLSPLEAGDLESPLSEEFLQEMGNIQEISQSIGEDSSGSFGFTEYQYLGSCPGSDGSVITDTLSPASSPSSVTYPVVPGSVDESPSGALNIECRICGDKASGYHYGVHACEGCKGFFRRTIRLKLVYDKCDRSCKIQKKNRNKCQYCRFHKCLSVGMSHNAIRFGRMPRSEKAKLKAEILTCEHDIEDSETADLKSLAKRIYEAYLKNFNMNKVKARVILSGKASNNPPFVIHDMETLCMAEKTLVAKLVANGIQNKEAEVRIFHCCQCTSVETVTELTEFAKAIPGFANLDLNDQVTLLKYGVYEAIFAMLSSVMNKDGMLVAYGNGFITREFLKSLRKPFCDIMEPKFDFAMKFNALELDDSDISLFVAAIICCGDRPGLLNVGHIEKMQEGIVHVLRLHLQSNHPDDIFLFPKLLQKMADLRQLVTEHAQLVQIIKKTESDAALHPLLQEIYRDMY
Below, each of the compounds is paired with its reported EC50 value.

- compound: "CCC[C@@H](Oc1cccc(Cn2c(C)c(C(=O)c3ccc(Cl)cc3)c3ccc(OC(F)(F)F)cc32)c1)C(=O)O"
  unit label: "nM"
  comparator: "="
  EC50: 380
- compound: "Cc1c(C(=O)c2ccc(Cl)cc2)c2ccc(OC(F)(F)F)cc2n1Cc1cccc(O[C@H](C(=O)O)C(C)C)c1"
  unit label: "nM"
  comparator: "="
  EC50: 370
- compound: "CC[C@@](C)(Oc1cccc(Cn2c(C)c(C(=O)c3ccc(Cl)cc3)c3ccc(OC(F)(F)F)cc32)c1)C(=O)O (stereo in doubt; 12i)"
  unit label: "nM"
  comparator: "="
  EC50: 107
- compound: "Cc1c(Cc2cccc(OCC(=O)O)c2)c2cc(OC(F)(F)F)ccc2n1C(=O)c1ccc(Cl)cc1"
  unit label: "nM"
  comparator: ">"
  EC50: 3000
- compound: "CCC[C@H](Oc1cccc(Cn2c(C)c(C(=O)c3ccc(Cl)cc3)c3ccc(OC(F)(F)F)cc32)c1)C(=O)O"
  unit label: "nM"
  comparator: ">"
  EC50: 3000

----------
Tested on: Mus musculus
Test: Antidiabetic activity in C57BLKS/J-m+/+Leprdb db/db mouse assessed as reduction in plasma glucose levels at 10 mg/kg, po once daily for 11 days relative to control
Type: functional
Parameters: scale not given: the % may be the effect or the level left
attribute measured: Activity

- compound: "Cc1c(C(=O)c2ccc(Cl)cc2)c2ccc(OC(F)(F)F)cc2n1Cc1cccc(O[C@@H](C(=O)O)C(C)C)c1"
  study system: "Mus musculus"
  value measured: "101%"
- compound: "Cc1c(C(=O)c2ccc(Cl)cc2)c2ccc(OC(F)(F)F)cc2n1Cc1cccc(O[C@@H](C)C(=O)O)c1"
  study system: "Mus musculus"
  value measured: "53%"
- compound: "CCC[C@H](Oc1cccc(Cn2c(C)c(C(=O)c3ccc(Cl)cc3)c3ccc(OC(F)(F)F)cc32)c1)C(=O)O"
  study system: "Mus musculus"
  value measured: "22%"
- compound: "CCc1ccc(CCOc2ccc(CC3SC(=O)NC3=O)cc2)nc1 (stereo unspecified) [PIOGLITAZONE]"
  study system: "Mus musculus"
  value measured: "53%"
- compound: "Cc1c(C(=O)c2ccc(Cl)cc2)c2ccc(OC(F)(F)F)cc2n1Cc1cccc(O[C@H](C)C(=O)O)c1"
  study system: "Mus musculus"
  value measured: "105%"
- compound: "CC[C@H](Oc1cccc(Cn2c(C)c(C(=O)c3ccc(Cl)cc3)c3ccc(OC(F)(F)F)cc32)c1)C(=O)O"
  study system: "Mus musculus"
  value measured: "22%"

# credit: ChEMBL document CHEMBL1158459
